test system: Staphylococcus aureus; assay: Antibacterial activity against methicillin-resistant Staphylococcus aureus 519028 clinical isolate after 20 to 24 hrs by two-fold microdilution method; type: functional
Below, each entry is listed alongside its reported MIC.
Give a bare numeral; the unit µg/mL is implied.

CN(C)CCCCCOC(=O)c1c2c(n3cc(Br)ccc13)C(=O)c1ncccc1C2=O = 0.125

Ask: Staphylococcus aureus / MIC / `CN1CCN(CCCCCCOC(=O)c2c3c(n4cc(Br)ccc24)C(=O)c2ncccc2C3=O)CC1` : value?
Reply: 0.125

Ask: Staphylococcus aureus / MIC / `O=C1c2cccnc2C(=O)c2c1c(C(=O)OCCCCN1CCOCC1)c1ccc(Br)cn21` : value?
Reply: 0.5

Ask: Staphylococcus aureus / MIC / `O=C1c2cccnc2C(=O)c2c1c(C(=O)OCCCCCCN1CCCCC1)c1ccc(Br)cn21` : value?
Reply: 0.125
